# testProtocol: ATG_NF_kB_CIS: Attagene CIS-FACTORIAL HepG2 Assay for human Nuclear Factor Kappa B (NF-kB) (AID 2282991)
# conditionLabel: HepG2 Attagene cis-factorial NF-kB reporter mRNA; actives raise or lower the signal
Activity calls are given as the source filed them. The calls were made as follows: active = hit-call score of the fitted dose curve at least 0.9, where 1 is the maximum; inactive = score below 0.9.
Classes used: 1 = active, -1 = inactive

> print(dat)
                                    molecule  group
 1                 Oc1ccc2ccc3cccc4ccc1c2c34     -1
 2       CN(C)c1ccc(C(=O)c2ccc(N(C)C)cc2)cc1     -1
 3          COP(=S)(OC)SCN1C(=O)c2ccccc2C1=O     -1
 4                   Nc1ccc(Oc2ccc(N)cc2)cc1     -1
 5  CO[C@@H]1[C@H](OC(=O)NC(=O)CCl)CC[C@]2(CO2)[C@H]1[C@@]1(C)O[C@@H]1CC=C(C)C     -1
 6     O=[N+]([O-])c1ccc(Oc2ccc(Cl)cc2Cl)cc1     -1
 7                                O=Cc1ccco1     -1
 8                           Cc1ccc(N)c(N)c1     -1
 9                                N#CC(Br)Br     -1
10  CCCCC(CC)COC(=O)c1ccc(C(=O)OCC(CC)CCCC)c(C(=O)OCC(CC)CCCC)c1 (stereo unspecified)     -1
11                                [O-][Cl+]O     -1
12                   Nc1ccc([N+](=O)[O-])cc1     -1
13                              Cc1ccc(N)cc1     -1
14  CN(C)[C@@H]1C(=O)C(C(N)=O)=C(O)[C@@]2(O)C(=O)C3=C(O)c4c(O)cccc4[C@@](C)(O)[C@H]3C[C@@H]12     -1
15                            Nc1ccc(Cl)cc1N     -1
16                  Cc1cc(N=Nc2ccccc2C)ccc1N     -1
17                     c1ccc(N=Nc2ccccc2)cc1     -1
18                          COC(=O)c1ccccc1N     -1
19          CC(C)(OOC(C)(C)c1ccccc1)c1ccccc1     -1
20  CCOC(=O)[C@]1(c2ccccc2)Oc2ccccc2[C@@H]1N      1
21           O=C(Oc1ccc(Br)cc1)N1CCN2CCC1CC2      1
22                   CN(C)C(=O)Nc1ccc(Cl)cc1     -1
23  ClC1=C(Cl)C2(Cl)C3C(Cl)C=CC3C1(Cl)C2(Cl)Cl (stereo unspecified)      1
24                   Nc1ccc(Cc2ccc(N)cc2)cc1     -1
25                         CCCCCCCCn1sccc1=O      1
26                                CCN(CC)CCO     -1

----------
# Read-out: Interleukin-6 (IL6), IL6 (gene 3569)
# testProtocol: BSK_CASM3C_IL6: BioMAP Diversity Plus: CASM3C Assay for Interleukin-6 (IL6) Biomarker Activity for (AID 2283040)
# conditionLabel: primary human coronary artery smooth muscle cells; actives raise or lower the signal
Active and inactive are the calls of the source. How the source made its calls: active means hit-call score of the fitted dose curve at least 0.9, where 1 is the maximum; inactive means score below 0.9.
Classes used: active, inactive

> print(dat)
                                    molecule     group
 1                       C=CCc1ccc2c(c1)OCO2  inactive
 2                            CCC12COCN1COC2  inactive
 3                       C1=Cc2cccc3cccc1c23  inactive
 4  COc1cc(C=O)cc2c1[C@H](COC(N)=O)[C@]1(OC(C)=O)ON2C[C@H]2[C@@H]1N2C(C)=O    active
 5                              Cc1ccc(N)cc1  inactive
 6     O=[N+]([O-])c1ccc(Oc2ccc(Cl)cc2Cl)cc1  inactive
 7                                 O=C1CCCO1  inactive
 8                    O=P(OCCCl)(OCCCl)OCCCl  inactive
 9  CC(C)(C)C(O)(CCc1ccc(Cl)cc1)Cn1cncn1 (stereo not drawn)  inactive
10           O=C(Oc1ccc(Br)cc1)N1CCN2CCC1CC2  inactive
11                             Cc1cccc(N)c1N  inactive
12                  Cc1cc(N=Nc2ccccc2C)ccc1N  inactive
13                     Brc1ccc(Oc2ccccc2)cc1  inactive
14       CN(C)c1ccc(C(=O)c2ccc(N(C)C)cc2)cc1  inactive
15                     c1ccc2c(c1)oc1ccccc12  inactive
16  CO[C@@H]1[C@H](OC(=O)NC(=O)CCl)CC[C@]2(CO2)[C@H]1[C@@]1(C)O[C@@H]1CC=C(C)C  inactive
17               CNC(=O)Oc1cccc2c1OC(C)(C)C2  inactive
18                         CCCCCCCCn1sccc1=O    active
19                               Oc1ccccc1Cl  inactive
20  ClC1=C(Cl)C2(Cl)C3C(Cl)C=CC3C1(Cl)C2(Cl)Cl (stereo not drawn)    active
21                                    OCCCBr  inactive
22                     c1ccc(N=Nc2ccccc2)cc1  inactive
23  CCOc1cccc(C2(N3CCN(c4ccccc4)CC3)CCC(C)CC2)c1 (stereo not drawn)  inactive
24                                N#CC(Br)Br  inactive
25  CC(C)(O)c1cnn2c(-c3ccc(F)c(-c4c(F)cccc4C#N)c3)cnc2n1  inactive
26                   Cc1ccc([N+](=O)[O-])cc1  inactive
27  CCCCC(CC)COC(=O)c1ccc(C(=O)OCC(CC)CCCC)c(C(=O)OCC(CC)CCCC)c1 (stereo not drawn)  inactive
28  Cn1cc(-c2ccccc2)c(=O)c(-c2cccc(C(F)(F)F)c2)c1  inactive

----------
# testProtocol: ATG_TAL_CIS: Attagene CIS-FACTORIAL HepG2 Assay for human TAL Basal Promoter (AID 2282966);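 also: background control endpoint measuring basal TAL promoter reporter mRNA not a specific factor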
# conditionLabel: HepG2 Attagene cis-factorial TAL promoter reporter; actives raise or lower the signal
The source made the active and inactive calls. The calls were made as follows: active = hit-call score of the fitted dose curve at least 0.9, where 1 is the maximum; inactive = score below 0.9.
Classes used: yes for active, no for inactive

> print(dat)
                                    molecule  group
 1  CC(C)(C)C(O)(CCc1ccc(Cl)cc1)Cn1cncn1 (stereo unspecified)     no
 2                   Nc1ccc([N+](=O)[O-])cc1     no
 3    CCC(C)c1ccc(O)cc1 (stereo unspecified)     no
 4                          COC(=O)c1ccccc1N     no
 5                                 [As]#[In]     no
 6                               Oc1ccccc1Cl     no
 7  ClC1=C(Cl)C2(Cl)C3C(Cl)C=CC3C1(Cl)C2(Cl)Cl (stereo unspecified)     no
 8                    O=P(OCCCl)(OCCCl)OCCCl     no
 9                     Brc1ccc(Oc2ccccc2)cc1     no
10      CC(C)(C)OOC(C)(C)CCC(C)(C)OOC(C)(C)C     no
11  COc1cc(C=O)cc2c1[C@H](COC(N)=O)[C@]1(OC(C)=O)ON2C[C@H]2[C@@H]1N2C(C)=O    yes
12                   Nc1ccc(Cc2ccc(N)cc2)cc1     no
13                                N#CC(Br)Br     no
14                                    OCCCBr     no
15          CC(C)(OOC(C)(C)c1ccccc1)c1ccccc1    yes
16               CNC(=O)Oc1cccc2c1OC(C)(C)C2     no
17                                CCN(CC)CCO     no
18                      c1ccc(NNc2ccccc2)cc1     no
19                   Cc1ccc([N+](=O)[O-])cc1     no
20  CS(=O)(=O)NC(=O)c1cc(Oc2ccc(C(F)(F)F)cc2Cl)ccc1[N+](=O)[O-]     no
21                   CC(C)(C)OOC(=O)c1ccccc1     no
22                   O=C(Nc1ccccc1)c1ccccc1I     no
23                                     OCCCl     no
24            CC(C)N(Cc1ccccc1)C(=O)C(C)(C)C     no
25                            CCC12COCN1COC2     no
26                                [O-][Cl+]O     no
27                            Nc1ccc(Cl)cc1N     no
28                              Clc1ccccc1Cl     no
29                        [Cl-].[Cl-].[Hg+2]     no
30      CCC[CH2][Sn]([Cl])([CH2]CCC)[CH2]CCC     no
31         CCCCOC(=O)c1ccccc1C(=O)OCc1ccccc1     no
32                     Cc1ccc(N=C=O)cc1N=C=O     no
33  Cn1cc(-c2ccccc2)c(=O)c(-c2cccc(C(F)(F)F)c2)c1     no
34          COP(=S)(OC)SCN1C(=O)c2ccccc2C1=O     no
35          CC(C)COC(=O)c1ccccc1C(=O)OCC(C)C     no
36                         CCCCCCCCn1sccc1=O     no
37                   CN(C)C(=O)Nc1ccc(Cl)cc1     no
38                             Cc1cccc(N)c1N     no
39                        Clc1ccc(Cl)c(Cl)c1     no
40  CCOc1cccc(C2(N3CCN(c4ccccc4)CC3)CCC(C)CC2)c1 (stereo unspecified)     no
41  O=C(O)C1C2CCC(O2)C1C(=O)O (stereo unspecified)     no
42  CCOC(=O)[C@]1(c2ccccc2)Oc2ccccc2[C@@H]1N    yes
43                        N#CC(Br)(Br)C(N)=O     no
44             CC(O)CCO (stereo unspecified)     no
45                  Cc1cc(N=Nc2ccccc2C)ccc1N     no
46  CCNS(=O)(=O)C(F)(F)C(F)(F)C(F)(F)C(F)(F)C(F)(F)C(F)(F)C(F)(F)C(F)(F)F     no
